Would you mind telling me the reported GI50 of each entry?
System: SF-539
Test: NCI tumour cell line growth inhibition, 48 h
Activity calls are given as the source filed them. No stated cut-off is given here; in the data, active = GI50 up to about 1.1 µM and inactive = higher.

Enquiry: Fill in: GI50 on SF-539, entry `Clc1ccc(CN2COc3c(cc(Cl)c4cccnc34)C2)cc1`
Return: 2.03 µM (inactive)

Enquiry: Enter measured GI50, system SF-539, for the molecule shown: `N#Cc1cc(-c2nc3ccc(F)cc3s2)ccc1N`
Return: 51.1 µM (inactive)

Enquiry: Write GI50 of `Cc1cccc2sc(NC(=O)c3cc([N+](=O)[O-])ccc3Cl)nc12` ; system used: SF-539
Return: 2.36 µM (inactive)

Enquiry: Report GI50 from SF-539 testing of CC(=O)C1(O)CC2(c3ccccc3)C(=O)C1(c1ccccc1)C(c1ccccc1)=C2c1ccccc1 (stereo unspecified)
Return: > 100 µM (inactive)

Enquiry: Answer briefly: GI50 recorded on SF-539 for Cc1ccc(S(=O)(=O)NC(=O)NC(Cc2c[nH]c3ccccc23)C(=O)O)cc1 (stereo unspecified)
Return: > 100 µM (inactive)

Enquiry: Give GI50 for this entry on SF-539: `N#Cc1c(N2CCCC2)nsc1NCc1ccccc1`
Return: > 100 µM (inactive)

* * *

System: MOLT-4
Test: NCI tumour cell line growth inhibition, 48 h
Calls of active or inactive are those of the source. No stated cut-off is given here; in the data, active = GI50 up to about 1.1 µM and inactive = higher.
Classes to choose from: true (1) (active), false (0) (inactive)

Enquiry: Query: recorded result category for `O=S(=O)(O)c1cc(Cl)c(O)c2ncc(Cl)cc12` in this test
Return: false (0)

Enquiry: I'd appreciate the recorded outcome for `N=NCC(=O)OC(COCc1ccccc1)COCc1ccccc1` from this test.
Return: false (0)

Enquiry: Status in this test for O=[N+]([O-])c1ccc(C2=NOC(c3ccccc3)N2C23CC4CC(CC(C4)C2)C3)cc1 (configuration not stated) ?
Return: false (0)

Enquiry: Test call for this compound, please: `Cc1cc(C)n(CN(CCCCO)Cn2nc(C)cc2C)n1`
Return: false (0)

Enquiry: Short answer needed: outcome of this test for O=C1CC2(CCC(O)(c3ccccc3)C(C(=O)c3ccccc3)C2)C(=O)c2ccccc2N1 (configuration not stated) ?
Return: false (0)

Enquiry: Write down the call the test reported for this compound. Item: `CC(C)(C)N1C=[N+](C(C)(C)C)CC1`
Return: false (0)

Enquiry: What outcome does the record of this test show for `O=c1[nH]c(Cc2ccccc2)nc2c1sc1nc3ccccc3n12` ?
Return: false (0)

Enquiry: What outcome does the record of this test show for `CCN(CC)CCN(/C(=N/c1ccccc1)N1CCCCC1)c1ccccc1` ?
Return: false (0)

Enquiry: Hi, do you know how CC(C)(C)c1cc(C2NCCO2)cc(C(C)(C)C)c1O (configuration not stated) came out in this test?
Return: false (0)

Enquiry: Answer briefly: the call reported for `Clc1ccc(CN2COc3c(cc(Cl)c4cccnc34)C2)cc1` in this assay.
Return: false (0)

Enquiry: State the result this test recorded for Cc1ccc(S(=O)(=O)NC(=O)NC(Cc2c[nH]c3ccccc23)C(=O)O)cc1 (configuration not stated) .
Return: false (0)

Enquiry: Test call for this compound, please: COC(=O)C(C(=O)C(=O)Nc1cccc(OC)c1)c1cnc2ccccc2n1 (configuration not stated)
Return: false (0)

Enquiry: Any idea what this test logged for `CN1CCN(C2=NCCO2)CC1` ?
Return: false (0)

Enquiry: What call does the record list for `Cc1[nH]nc(C(=O)N/N=C/c2ccccc2Cl)c1/N=N\N(C)C` ?
Return: false (0)

Enquiry: Recorded test call requested for `COc1cc(COC(=O)N[C@H](C(=O)O)C(C)(C)C)c([N+](=O)[O-])cc1OC`
Return: false (0)

Enquiry: GET /call?item= CC1=C(/C=C/Cl)CC(Cl)C(C)(Cl)C1 (configuration not stated) returns the recorded outcome of this test.
Return: false (0)

Enquiry: Please let me know the test result on file for `CC1=C(C(=O)Nc2ccccc2)C(c2cccc3ccccc23)C(C(=O)Nc2ccccc2)=C(C)N1` .
Return: true (1)

Enquiry: What outcome does the record of this test show for CC(=O)OCC1OC(OC(C)=O)C(Nc2ncc(-c3ccc(C)cc3)s2)C(OC(C)=O)C1OC(C)=O (configuration not stated) ?
Return: false (0)

Enquiry: Identify the outcome logged in this assay for the compound shown: CC(O)CC(O)(C(F)(F)F)C(F)(F)F (configuration not stated)
Return: false (0)

Enquiry: Per the assay record, what outcome was assigned to C=CCOC(=O)N1[C@H]2C#C/C=C\C#C[C@]3(O)C(=O)C[C@H](C)[C@]24O[C@]43C2=CC(=O)C=CC21OC (some centres not stated) ?
Return: false (0)

Enquiry: Any idea what this test logged for CCC(O)c1ccc(/N=C/c2ccccc2O)cc1 (configuration not stated) ?
Return: false (0)

Enquiry: Test call for this compound, please: O=C1C2CC=CCC2C(=O)N1n1c(Cc2ccccc2)n[nH]c1=O (configuration not stated)
Return: false (0)

* * *

Tested on: HCC 2998
Assay: NCI tumour cell line growth inhibition, 48 h
Calls of active or inactive are those of the source. Rule as the data show it: active = GI50 up to about 1.1 µM and inactive = higher.
Bench note: report the call from YES (active), NO (inactive)

Enquiry: What was the test verdict on `O=C1CCC2SC1CCC2=O` ?
Return: NO

Enquiry: What call does the record list for `Cc1ccc(S(=O)(=O)N2CCCSCCSCCCN(S(=O)(=O)c3ccc(C)cc3)CC2)cc1` ?
Return: NO

Enquiry: Check the results log: what was the call for `COc1ccc2c(C)cc(N/N=C/c3ccc(C)s3)nc2c1` ?
Return: NO

Enquiry: Called result for `N#C/C(=C/NC(=S)c1ccncc1)C(N)=O`
Return: NO

Enquiry: Name the outcome recorded for `CC1=C(C(=O)Nc2ccc([N+](=O)[O-])cc2)C(c2ccc(N(C)C)cc2)C(C(=O)Nc2ccc([N+](=O)[O-])cc2)=C(C)N1` in the assay.
Return: NO

Enquiry: Outcome logged for CCCCCNC(=O)OC1CCn2c1nc1c2C(=O)C(C)=C(N2CC2)C1=O (stereo not given) in this assay:
Return: YES

Enquiry: What is the recorded call for this compound in the test? `CN(CCNC(=O)c1n[nH]c2c1ccc1ccccc12)CCNC(=O)c1n[nH]c2c1ccc1ccccc12`
Return: NO

Enquiry: // param item: `O=S(=O)(O)c1cc(Cl)c(O)c2ncc(Cl)cc12` ; yields the recorded call
Return: NO

Enquiry: State the result this test recorded for O=C1CCC(C(=O)O)C2=C1CCCC2 (stereo not given) .
Return: NO

Enquiry: # outcome recorded in this test, key = `CN(C)c1ccc(/C=c2/c3ccccc3n3c2cc(C24CC5CC(CC(C5)C2)C4)[n+]3C)cc1`
Return: YES

* * *

Record form. Attribute: GI50. Fill in for each entry.
Test system: M14
Test: NCI tumour cell line growth inhibition, 48 h
Calls of active or inactive are those of the source. Cut-off read from the data, not from the text of the source: active = GI50 up to about 1.1 µM and inactive = higher.

Enquiry: Please report the measured GI50 for `Nc1ccccc1N/C=C\C(=O)C(Cl)(Cl)Cl`
Return: 14.7 µM (inactive)

Enquiry: Name the recorded GI50 of the molecule listed here: CC(C)C1CC[C@@H](C)C[C@@]1(O)CC(N)=O (stereo partly specified)
Return: > 100 µM (inactive)

Enquiry: Identify the reported GI50 for the following entry. `Cc1cc(C)cc(Nc2cc(O)nc(O)n2)c1`
Return: > 100 µM (inactive)

Enquiry: Give reported GI50 value for CC(C)OCC(O)COc1cc(=O)oc2ccccc12 (stereo unspecified)
Return: > 100 µM (inactive)

Enquiry: State its GI50: `Cc1ccc(S(=O)(=O)N/N=C2/C(=O)Nc3c(Cl)cc(Cl)cc32)cc1`
Return: 73.5 µM (inactive)

Enquiry: Identify measured GI50 associated with CCCCCNC(=O)OC1CCn2c1nc1c2C(=O)C(C)=C(N2CC2)C1=O (stereo unspecified)
Return: 1.45 µM (inactive)

* * *

System: SF-539
Assay: NCI tumour cell line growth inhibition, 48 h
The source made the active and inactive calls. Cut-off read from the data, not from the text of the source: active = GI50 up to about 1.1 µM and inactive = higher. Non-standard residues stand in square brackets, D forms with d. Residues, ends and D or L forms follow the SMILES beside them. *: point of attachment. NMeF = CN[CH](Cc1ccccc1)C(=O)O; NMeV = CN[CH](C(=O)O)C(C)C; Boc = CC(C)(C)OC(=O)*
API: response.call in true = active, false = inactive

Enquiry: // param item: `CN1CCN(C2=NCCO2)CC1` ; yields the recorded call
Return: false

Enquiry: Recorded call for CC(C)(C)C1(O)C=C(O)C(=O)N1NC(=O)c1ccccc1Nc1ccccc1 (stereo not drawn) ?
Return: false

Enquiry: Fill in: this test's call for `CCOC(=O)c1cn2c(n1)sc1c(Cl)c(Cl)ccc12` is ___
Return: false

Enquiry: Fill in: this test's call for N#CC(N)(C(=O)CCC(=O)Nc1cccc(Cl)c1)c1ccc(Cl)cc1 (stereo not drawn) is ___
Return: false

Enquiry: Would you mind telling me which call this test gave `COC(=O)c1ccc(Cc2ccc(C(=O)OC)o2)o1` ?
Return: false

Enquiry: Which outcome was assigned to `CCCCCCC(=O)OC[n+]1ccc2c(C)c3[nH]c4ccc(OC)cc4c3c(C)c2c1` in this test?
Return: true

Enquiry: // param item: `COc1cc(-c2cc(=O)c3cc4c(cc3[nH]2)OCO4)cc(OC)c1O` ; yields the recorded call
Return: false

Enquiry: Call for entry CC1(C)CC2(C)CC1CC2NC(=O)CCN1CCOCC1 (stereo not drawn) :
Return: false

Enquiry: How was `Cc1ccc(Nc2ccc(Nc3ccc(C)cc3)c3c2C(=O)c2c(O)ccc(O)c2C3=O)cc1` classified in this test?
Return: false

Enquiry: Short answer needed: outcome of this test for `Cc1nnc2n1N=C(c1cc(F)c(Cl)cc1Cl)/C(=C/c1ccc3c(c1)OCO3)S2` ?
Return: false

Enquiry: Hi, do you know how CN1CCCCC(C(O)(c2ccccc2)c2ccccc2)C1=O (stereo not drawn) came out in this test?
Return: false

Enquiry: Recorded call for `Cc1ccc(S(=O)(=O)N2CCCSCCSCCCN(S(=O)(=O)c3ccc(C)cc3)CC2)cc1` ?
Return: false

Enquiry: // param item: CC(=O)Nc1ccc2c3c(cc(O)c2c1)N(C(=O)CCCCCCC(=O)Nc1ccc2c4c(cc(O)c2c1)N(C(=O)OC(C)(C)C)CC4CCl)CC3CCl (stereo not drawn) ; yields the recorded call
Return: true

Enquiry: I would be grateful if you could indicate the recorded call for Cc1c(C)c(C)n(C2OC(CO)C(O)C(O)C2O)c(=S)c1C#N (stereo not drawn) .
Return: false

Enquiry: Please state the recorded outcome for this compound: CC(=O)OCC1OC(OC(C)=O)C(Nc2ncc(-c3ccc(C)cc3)s2)C(OC(C)=O)C1OC(C)=O (stereo not drawn)
Return: false

Enquiry: Which outcome was entered for the compound `[O-]c1c2cc(-[n+]3c(-c4ccccc4)cc(-c4ccccc4)cc3-c3ccccc3)cc1CO[C@@H](c1ccccc1)[C@H](c1ccccc1)OCCOCCO[C@@H](c1ccccc1)[C@H](c1ccccc1)OC2` in this test?
Return: true

Enquiry: Given `C=C[C@H]1CN2CCc3c([nH]c4cc(O)ccc34)[C@@H]2C[C@@H]1C[C@H]1c2[nH]c3ccccc3c2CCN1C` , state the outcome it received in this test.
Return: false

Enquiry: Write down the call the test reported for this compound. Item: `C#Cc1c(C)c(/C=C/C(C)=C/C(=O)OC)n(C)c1C`
Return: false

Enquiry: Record lookup: outcome of this test for `CCN(CC)CCN(/C(=N/c1ccccc1)N1CCCCC1)c1ccccc1` ?
Return: false

Enquiry: Short answer needed: outcome of this test for `CCOC(=O)c1c2c(n(C)c1-c1ccccc1)C(=O)C(C)=CC2=O` ?
Return: false

Enquiry: Please let me know the test result on file for `Nc1ccccc1N/C=C\C(=O)C(Cl)(Cl)Cl` .
Return: false

Enquiry: Assay result, entry `O=c1[nH]c(Cc2ccccc2)nc2c1sc1nc3ccccc3n12` — outcome?
Return: false

Enquiry: I would be grateful if you could indicate the recorded call for CC(NC(=O)c1ccc(OP(=O)(OCc2ccc([N+](=O)[O-])o2)N(C)CCCCCl)cc1)c1ccc(OCC2CCCCC2)c(C(N)=O)c1 (stereo not drawn) .
Return: false

Enquiry: GET /call?item= `Cc1[nH]nc(C(=O)N/N=C/c2ccccc2Cl)c1/N=N\N(C)C` returns the recorded outcome of this test.
Return: false

Enquiry: Just curious, what result did `O=C1CCC2SC1CCC2=O` get here?
Return: false

Enquiry: Could you kindly confirm the outcome this assay logged for FC(F)(F)c1ccc2nc3n(c2c1)C(c1c(Cl)cccc1Cl)SC3 (stereo not drawn) ?
Return: false

Enquiry: Look up the recorded call for `O=C(N/N=C/c1cc(-c2ccccc2Cl)c(-c2ccccc2Cl)o1)c1ccncc1` in this test.
Return: false

Enquiry: Could you please tell me the result logged for `CCCCc1c(N(C)C)c(OC(C)=O)c(-c2cn(C)c3ccccc23)oc1=O` in this assay?
Return: false

Enquiry: Which outcome did this test record for the compound CCOP(=O)(O)C(Nc1ccc(/N=N/c2ccccc2)cc1)c1cccc(C(Nc2ccc(/N=N/c3ccccc3)cc2)P(=O)(O)OCC)c1 (stereo not drawn) ?
Return: false

Enquiry: Assay outcome for Cc1ccc(S(=O)(=O)N/N=C2\C=CC3(CC2)C(=O)N(I)c2ccccc23)cc1 (stereo not drawn) : what was it?
Return: false

Enquiry: Please share the test call associated with COc1ccc(C2c3cc4c(cc3OC(Nc3ccccc3)C2C)OCO4)cc1 (stereo not drawn) .
Return: false

Enquiry: Which outcome was entered for the compound `O=C1C=CC(=O)c2c1ccc1c3ccccc3n(CCCCCCCCn3c4ccccc4c4ccc5c(c43)C(=O)C=CC5=O)c21` in this test?
Return: false

Enquiry: Per the records of this test, what outcome belongs to CCOP(=O)(OCC)C1CC(C)OC1=O (stereo not drawn) ?
Return: false

Enquiry: Dear all, I need the recorded test outcome for `O=c1cc(CSc2c(-c3ccccc3)c(=O)n(-c3ccccc3)c(=S)n2-c2ccccc2)[nH]c(=O)[nH]1` , thank you.
Return: false

Enquiry: Which result was noted for this compound in the test: CC(CC=O)Nc1nn2c(=O)c3ccccc3nc2s1 (stereo not drawn)
Return: false

Enquiry: Tell me the recorded outcome of this test for CC(C)C(NC(=O)OC(C)(C)C)C(=O)N(C)C(Cc1ccccc1)C(=O)N(C)C(C(=O)O)C(C)C (stereo not drawn) (Boc-Val-[NMeF]-[NMeV]-OH; configuration not given here) .
Return: false

Enquiry: Write down the call the test reported for this compound. Item: CCOC(=O)NC(C(=O)OCC)(N1CCN(c2cc3c(cc2F)c(=O)c(C(=O)O)cn3CC)CC1)C(F)(F)F (stereo not drawn)
Return: false

Enquiry: Each compound tested received a call. Report the one for `O=C(/C=C/c1ccc(F)c(F)c1)OCCc1ccccc1` .
Return: false
